- System: OVCAR-5 ovarian
- Assay Comment: NCI tumour cell line growth inhibition, 48 h
Where a SMILES comes first, the peptide text is derived from it. The star is where a group is joined. Trt = c1ccc(C(c2ccccc2)(c2ccccc2)*)cc1; Cbz = O=C(OCc1ccccc1)*
For each record, write down the corresponding TGI.

| Compound | TGI |
| --- | --- |
| C[C@@H](CC(O)C(O)C(C)(C)O)C1CCC23CC12CCC1[C@@]2(C)CCC(O)C(C)(C)C2CC(OC2OC(CO)C(O)C(O)C2O)[C@]13C (some centres undefined) | > 10 µM |
| OCC1O[C@H](O[C@@H]2CCCN3CC(O)C(O)[C@@H]23)C(O)C(O)C1O (some centres undefined) | > 100 µM |
| Cc1c(C)c2c(c(N)c1C#N)C(=O)N(O)C2=O | > 100 µM |
| O=C1Nc2ccc(Br)cc2C12CC(c1ccccc1)=NN2 (centres undefined) | > 100 µM |
| CCOC(=O)c1c(-c2ccccc2)[n+](=O)c2cc(Cl)c(Cl)cc2n1[O-] | 47.7 µM |

For every listed record, write down its TGI.
1. COc1cc(/C=C/C(=O)c2cccc(-n3cc(-c4cc(OC)c(OC)c(OC)c4)[nH]c3=O)c2)cc(OC)c1OC
2. O=C1OC(c2ccccc2)=NC1c1ccccc1 (centres undefined)
3. COc1cc2ccc3c4ccccc4cnc3c2cc1OC
4. COC(=O)C(CO)NC(=O)C(CSC(c1ccccc1)(c1ccccc1)c1ccccc1)NC(=O)OCc1ccccc1 (centres undefined) (Cbz-Cys(Trt)-Ser-OMe; configuration not given here)

OUTPUT:
13.4 µM
> 100 µM
> 100 µM
35.3 µM

---

- Test system: SW-620 colon
- Assay Comment: NCI tumour cell line growth inhibition, 48 h
Endpoint Name: TGI

| Compound | Endpoint Name | Result |
| --- | --- | --- |
| CC(C)(C)N=CN1C=Cc2nc3ccccc3cc2C1 | TGI | 49.2 µM |
| CCOC1OC(CO)C(O)CC1n1ccc(=O)[nH]c1=O (centres undefined) | TGI | > 100 µM |
| CC(C)(O)/C1=C/C=C/CCCCCCCCCC1 | TGI | > 100 µM |
| COC1(CC[C@@H](C)COC2OC(CO)C(O)C(O)C2O)O[C@H]2C[C@H]3[C@@H]4CC=C5C[C@@H](OC6OC(CO)C(OC7OC(C)C(O)C(O)C7O)C(O)C6OC6OC(C)C(O)C(O)C6O)CC[C@]5(C)[C@H]4CC[C@]3(C)[C@H]2[C@@H]1C (some centres undefined) | TGI | 2.21 µM |

Dear reader, for each entry below, please note its TGI.
1. Cc1ccc(S(=O)c2cccs2)cc1 (centres undefined)
2. CC(CSC(=N)N)C(N)=O (centres undefined)
3. C[N+](C)(CCCCCC[N+](C)(C)CCCN1C(=O)c2cccc3cccc(c23)C1=O)CCCN1C(=O)c2cccc3cccc(c23)C1=O
4. O=C(O)c1nc2ccccc2nc1Nc1ccc(Cl)c(Cl)c1
5. COc1ccc2c(c1)OC(N)=C(C#N)C2c1cc(OC)c(OC)c(OC)c1 (centres undefined)

OUTPUT:
1: > 100 µM; 2: > 100 µM; 3: > 100 µM; 4: > 100 µM; 5: > 100 µM

---

- System: COLO 205 colon
- Assay Comment: NCI tumour cell line growth inhibition, 48 h
Endpoint Name: TGI

Sample answers from the record:
| Compound | TGI |
| --- | --- |
| Nc1nc2c(N)cc(C(F)(F)F)cc2nc1-c1ccccc1 | > 100 µM |
| O=C1[C@@H]2C(c3ccc(Br)cc3)=NO[C@@H]2C(=O)N1c1ccc(Cc2ccc(N3C(=O)[C@H]4C(c5ccc(Br)cc5)=NO[C@H]4C3=O)cc2)cc1 | > 40 µM |
| COC(=O)C(CC(C)C)NC(=O)C(NC(=O)c1ccc(-c2ccc(Cl)cc2Cl)o1)C(C)C (centres undefined) | 52.2 µM |
| COc1cc2cc(Oc3ccc(NC(=O)Nc4cc(C(F)(F)F)cc(C(F)(F)F)c4)cc3)c(C)nc2cc1OCCN1CCOCC1 | 2.18 µM |
| O=C(O/N=C1\CCCC\C1=C/c1ccccc1)c1ccc([N+](=O)[O-])cc1 | > 100 µM |

Quick request: TGI for each listed item, please.
1. CC(C)/C=C1\CCC(CN(C)C)C1=O (centres undefined)
2. FC(F)(F)c1ccc(C2ON=C(c3ccccc3)N2C23CC4CC(CC(C4)C2)C3)cc1 (centres undefined)
3. COc1cccc2c1-c1nc(N)c3c(OC)cccc3c1C2=O

OUTPUT:
1: 1.41 µM; 2: > 10 µM; 3: > 100 µM

INPUT: State its TGI: O=c1[nH]/c(=C/c2ccc3c(c2)OCO3)c(=O)[nH]/c1=C/c1ccc2c(c1)OCO2
OUTPUT: > 10 µM

---

Give measured GI50 for each item. Keep answers brief.
- System: MALME-3M melanoma
- Assay Comment: NCI tumour cell line growth inhibition, 48 h

The examples below pair each entry with its known result.
| Compound | Endpoint Name | Result |
| --- | --- | --- |
| COc1cc(/C=C2\C(=O)N(Cc3ccc(Cl)cc3)c3ccccc32)cc(OC)c1OC | GI50 | 3.73 µM |
| O=C1NC(=S)S/C1=C\c1cn(-c2ccccc2)nc1-c1ccccc1 | GI50 | 3.84 µM |
| c1cc(N[C@@H]2CCNC2)nc(-c2cnc3ccc(-c4cn[nH]c4)cn23)c1 | GI50 | 6.98 µM |

Kindly give each listed record's GI50.
1. COc1cc(CNCCCCCCN2C(=O)c3cccc4cccc(c34)C2=O)ccc1O
2. NC1NC=NC2C1N=CN2C1OC(CO)C2[O][Sn][O]C21 (stereo unspecified)
3. COc1cc[c]([Sn]([c]2ccc(OC)cc2)([c]2ccc(OC)cc2)[c]2ccc(OC)cc2)cc1
4. O=C1Nc2ccc(Cl)cc2/C1=C\c1c(-c2ccc(Cl)cc2)nc2sc(C3CC3)nn12
5. CN1CCN(CC(=O)N(C)c2ccc(N=C(c3ccccc3)c3c(O)[nH]c4ccc(C#N)cc34)cc2)CC1
6. CCCCN(CCCC)C(=O)[C@H](CC)[C@@H]1CC[C@@H](C)[C@@H]([C@H](C)[C@@H](O)[C@@H](C)C(=O)[C@H](CC)C2O[C@]3(C=C[C@@H](O)[C@]4(CC[C@@](C)([C@H]5CC[C@](O)(CC)[C@H](C)O5)O4)O3)[C@H](C)C[C@@H]2C)O1 (stereo partly specified)
7. Cc1cc(=O)oc2ccc(OC/C=C3\CCC(=O)O3)cc12

OUTPUT:
1: 2.02 µM; 2: > 100 µM; 3: 3.31 µM; 4: 2.9 µM; 5: 1.77 µM; 6: 1.87 µM; 7: 1.16 µM

---

- System: HOP-92 NSCLC
- Assay Comment: NCI tumour cell line growth inhibition, 48 h
Task for the reader: assign each of the following compounds its reported TGI.

Answered cases to consult:
| Compound | Result |
| --- | --- |
| CN(C)CCNC(=O)c1cccc2c1nc(-c1ccc(F)cc1)c1ccccc12 | 9.89 µM |
| COC(=O)C1(NC(=O)C(Cc2ccccc2)N(C(=O)OC(C)(C)C)C(=O)OC(C)(C)C)CCCC1 (stereo not given) | > 100 µM |
| CC(C)(C)OC(=O)NC1CCCC1C(=O)C1=CCCC1 (stereo not given) | > 100 µM |
| CC1(C)C2CCC3CC(CCC#N)CCC3C21C#N (stereo not given) | > 100 µM |

Lab note: next compound to report on.
INPUT: Return reported TGI. Input compound: N#CCn1c(=O)c(Oc2ccc(F)cc2F)cc2cnc(NC3CCOCC3)nc21
OUTPUT: > 25 µM

---

- Tested on: NCI-H226 lung
- Assay Comment: NCI tumour cell line growth inhibition, 48 h; in the data active = GI50 below about 0.43 µM; inactive = the rest
Allowed answers: active, inactive

Worked set:
| Compound | Experimental Target | Classification |
| --- | --- | --- |
| N#CCn1c(=O)c(Oc2ccc(F)cc2F)cc2cnc(NC3CCOCC3)nc21 | NCI-H226 lung | inactive |
| COc1cc(-c2cc(/C=C/C(=O)c3ccc(F)c(F)c3)[nH]n2)cc(OC)c1OC | NCI-H226 lung | inactive |
| O=C(Nc1ccc(Oc2ccc3nc(NC(=O)c4ccco4)[nH]c3c2)cc1)Nc1cc(C(F)(F)F)ccc1F | NCI-H226 lung | active |
| COc1cc(/C=C/C(=O)c2cccc(-n3cc(-c4cc(OC)c(OC)c(OC)c4)[nH]c3=O)c2)cc(OC)c1OC | NCI-H226 lung | inactive |

Pending compound:
INPUT: Test call for this compound, please: O=C1CC(c2c[nH]c3ccc(F)cc23)C(=O)N1 (stereo not given)
OUTPUT: inactive

---

- System: A498 renal
- Assay Comment: NCI tumour cell line growth inhibition, 48 h
Endpoint Name: TGI

Example compounds with recorded TGI:
| Compound | TGI |
| --- | --- |
| c1ccc(-c2oc(-c3ccccc3)c(CN3CCCCC3)c2CN2CCCCC2)cc1 | 11.8 µM |
| CCCNC(=O)Nc1c([N+](=O)[O-])cc(C(F)(F)F)cc1[N+](=O)[O-] | > 100 µM |

I have 2 compounds here; please give me TGI for each one.
1. C[C@H]1CC[P+](Cc2ccccc2)(c2ccccc2)C1 (stereo not given in full)
2. O=C1CC2OCC=C3CN4CCC56c7ccccc7N1C5C2C3CC46O (stereo not given)

OUTPUT:
> 100 µM
> 100 µM

INPUT: Report TGI for FC(F)(F)c1ccc2c(c1)N(CCCNCCN1CCOCC1)c1ccccc1S2
OUTPUT: 34.9 µM
